Molecular target: hERG (Homo sapiens)
Experiment: Patch clamp assay (hERG tail currents, whole-cell)
Conditions: 30 μM compound
result-type: hERG % Remaining

Would you please look over these solved cases?
> print(dat)
                               given.smiles       result.type  endpoint.result
1  C[C@@H]1COC[C@@H](C)N1C(=O)c1cc(F)ccc1Oc1cncnc1N1CC2(CCN(C[C@@H]3CC[C@@H](NS(=O)(=O)N4CCC4)CO3)CC2)C1  hERG % Remaining       +++ (≥66%)
2  Cc1ncc(S(=O)(=O)N[C@@H]2CC[C@@H](CN3CCC4(CC3)CN(c3ncncc3Oc3ccc(F)cc3C(=O)N(C(C)C)C(C)C)C4)OC2)s1  hERG % Remaining         + (<33%)
3  CCNS(=O)(=O)N[C@@H]1CC[C@@H](CN2CCC3(CC2)CN(c2ncncc2Oc2ccc(F)cc2C(=O)N(CC)C(C)C)C3)OC1  hERG % Remaining       +++ (≥66%)
4  CCN(C(=O)c1cc(F)ccc1Oc1cncnc1N1CC2(CCN(C[C@@H]3CC[C@@H](NS(=O)(=O)c4cnn(C)c4)CO3)CC2)C1)C(C)C  hERG % Remaining       +++ (≥66%)
5  CC(C)N(C(=O)c1cc(F)ccc1Oc1cncnc1N1CC2(CCN(C[C@@H]3CC[C@@H](NS(C)(=O)=O)CO3)CC2)C1)C(C)C  hERG % Remaining       +++ (≥66%)

From here, focus on the item given below.
Entry CCN(C(=O)c1cc(F)ccc1Oc1cncnc1N1CC2(CCN(C[C@@H]3CC[C@@H](NS(=O)(=O)NC)CO3)CC2)C1)C(C)C — recorded hERG % Remaining = +++ (≥66%)

###

Molecular target: hERG (Homo sapiens, UniProt Q12809)
Sequence (Q12809 whole entry): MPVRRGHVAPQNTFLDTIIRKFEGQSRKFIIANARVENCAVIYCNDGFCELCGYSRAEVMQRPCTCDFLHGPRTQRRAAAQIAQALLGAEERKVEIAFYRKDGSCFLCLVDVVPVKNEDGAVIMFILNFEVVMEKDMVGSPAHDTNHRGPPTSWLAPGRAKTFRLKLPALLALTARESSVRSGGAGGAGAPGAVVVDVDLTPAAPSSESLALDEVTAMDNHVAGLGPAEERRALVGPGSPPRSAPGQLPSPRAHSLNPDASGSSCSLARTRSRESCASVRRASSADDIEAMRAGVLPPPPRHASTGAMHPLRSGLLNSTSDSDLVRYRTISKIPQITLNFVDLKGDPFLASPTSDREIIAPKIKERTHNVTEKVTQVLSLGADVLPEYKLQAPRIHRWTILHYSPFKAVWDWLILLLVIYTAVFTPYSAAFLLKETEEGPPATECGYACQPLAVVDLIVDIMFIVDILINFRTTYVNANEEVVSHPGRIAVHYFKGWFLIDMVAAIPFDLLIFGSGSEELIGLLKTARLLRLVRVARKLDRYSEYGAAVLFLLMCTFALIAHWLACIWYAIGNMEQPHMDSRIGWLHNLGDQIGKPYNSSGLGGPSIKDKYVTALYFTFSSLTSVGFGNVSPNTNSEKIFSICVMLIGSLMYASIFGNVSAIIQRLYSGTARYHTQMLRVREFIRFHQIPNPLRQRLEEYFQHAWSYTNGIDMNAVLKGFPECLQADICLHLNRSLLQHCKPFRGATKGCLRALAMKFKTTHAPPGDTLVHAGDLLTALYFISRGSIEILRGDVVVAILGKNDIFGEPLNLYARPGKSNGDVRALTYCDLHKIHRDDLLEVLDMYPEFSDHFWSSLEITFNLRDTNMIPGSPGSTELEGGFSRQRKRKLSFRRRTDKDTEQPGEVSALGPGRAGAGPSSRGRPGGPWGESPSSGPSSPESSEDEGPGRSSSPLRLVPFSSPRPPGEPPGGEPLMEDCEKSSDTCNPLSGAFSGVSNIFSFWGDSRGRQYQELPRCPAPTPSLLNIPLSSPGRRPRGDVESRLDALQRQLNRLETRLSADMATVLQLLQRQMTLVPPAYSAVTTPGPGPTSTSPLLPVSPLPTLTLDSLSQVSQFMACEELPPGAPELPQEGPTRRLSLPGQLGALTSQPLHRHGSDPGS
Test: Patch clamp assay (hERG tail currents, whole-cell)
Conditions: 30 μM compound
result-type: hERG % Remaining

> print(dat)
                               given.smiles     endpoint.result
1  CCN(C(=O)c1cc(F)ccc1Oc1cncnc1N1CC2(CCN(C[C@@H]3CC[C@@H](NS(=O)(=O)N4CCC[C@H]4C)CO3)CC2)C1)C(C)C            + (<33%)
2  CCN(CC)S(=O)(=O)N[C@@H]1CC[C@@H](CN2CCC3(CC2)CN(c2ncncc2Oc2ccc(F)cc2C(=O)N(CC(F)F)C(C)C)C3)OC1            + (<33%)
3  CCS(=O)(=O)N[C@@H]1CC[C@@H](CN2CCC3(CC2)CN(c2ncncc2Oc2ccc(F)cc2C(=O)N(C(C)C)[C@H]2C[C@@H](F)C2)C3)OC1  ++ (233% and ≤66%)
4  CC(C)N(C(=O)c1cc(F)ccc1Oc1nncnc1N1CC2(CCN(C[C@@H]3CC[C@@H](NS(=O)(=O)C4CC4)CO3)CC2)C1)C(C)C          +++ (≥66%)
5  CC(C)N(CC(F)F)C(=O)c1cc(F)ccc1Oc1cncnc1N1CC2(CCN(C[C@@H]3CC[C@@H](NS(=O)(=O)c4ccn(C)n4)CO3)CC2)C1          +++ (≥66%)

Lab note: next molecule to report on.
The reported value for CCNS(=O)(=O)N[C@@H]1CC[C@@H](CN2CCC3(CC2)CN(c2ncncc2Oc2ccc(F)cc2C(=O)N(C(C)C)C2CC(F)(F)C2)C3)OC1 in terms of hERG % Remaining is ++ (233% and ≤66%)

###

Target: hERG (Homo sapiens, UniProt Q12809)
Test: Patch clamp assay (hERG tail currents, whole-cell)
Settings: 100 μM compound
result-type: hERG % Remaining

> print(dat)
                               given.smiles                    system.under.test  endpoint.result
1  CCN(C(=O)c1cc(F)ccc1Oc1cncnc1N1CC2(CCN(C[C@H]3CC[C@H](NS(=O)(=O)CC)CC3)CC2)C1)C(C)C  hERG (Homo sapiens, UniProt Q12809)         + (<33%)
2  CNS(=O)(=O)N[C@@H]1CC[C@@H](CN2CCC3(CC2)CN(c2ncncc2Oc2ccc(F)cc2C(=O)N(C(C)C)C(C)C)C3)OC1  hERG (Homo sapiens, UniProt Q12809)       +++ (≥66%)
3  CC(C)N(C(=O)c1cc(F)ccc1Oc1cncnc1N1CC2(CCN(C[C@@H]3CC[C@@H](NS(=O)(=O)C4CC4)CO3)CC2)C1)[C@H]1CCOC1  hERG (Homo sapiens, UniProt Q12809)       +++ (≥66%)
4  CC(C)N(C(=O)c1cc(F)ccc1Oc1cncnc1N1CC2(CCN(C[C@@H]3CC[C@@H](NS(=O)(=O)N(C)C)CO3)CC2)C1)C1CC1  hERG (Homo sapiens, UniProt Q12809)         + (<33%)
5  CC(C)N(C(=O)c1cc(F)ccc1Oc1cncnc1N1CC2(CCN(C[C@@H]3CC[C@@H](NS(=O)(=O)C(C)C)CO3)CC2)C1)C(C)C  hERG (Homo sapiens, UniProt Q12809)         + (<33%)

Please turn your attention to the following entry.
Reported hERG % Remaining of CC(C)N(C(=O)c1cc(F)ccc1Oc1cncnc1N1CC2(CCN(C[C@@H]3CC[C@@H](NS(=O)(=O)N(C)C)CO3)CC2)C1)[C@@H]1CCOC1 : +++ (≥66%)

###

Molecular target: hERG (Homo sapiens, UniProt Q12809)
Assay: Patch clamp assay (hERG tail currents, whole-cell)
Conditions: 30 μM compound
result-type: hERG % Remaining

> print(dat)
                               given.smiles       result.type  endpoint.result
1  CC(C)N(CC#N)C(=O)c1cc(F)ccc1Oc1cncnc1N1CC2(CCN(C[C@@H]3CC[C@@H](NS(=O)(=O)N4CCC4)CO3)CC2)C1  hERG % Remaining       +++ (≥66%)
2  CNS(=O)(=O)N[C@@H]1CC[C@@H](CN2CCC3(CC2)CN(c2ncncc2Oc2ccc(F)cc2C(=O)N(C(C)C)C(C)C)C3)OC1  hERG % Remaining       +++ (≥66%)

###

Target: hERG (Homo sapiens, UniProt Q12809)
Test: Patch clamp assay (hERG tail currents, whole-cell)
Details: 30 μM compound
result-type: hERG % Remaining

Please review the following examples before continuing.
> print(dat)
                                   compound     endpoint.result
1  CCS(=O)(=O)N[C@@H]1CC[C@@H](CN2CCC3(CC2)CN(c2ncncc2Oc2ccc(F)cc2C(=O)N(CC(F)F)C(C)C)C3)OC1 [Example 34]  ++ (233% and ≤66%)
2  C[C@@H]1COC[C@@H](C)N1C(=O)c1cc(F)ccc1Oc1cncnc1N1CC2(CCN(C[C@@H]3CC[C@@H](NS(=O)(=O)NCC4CC4)CO3)CC2)C1 [Example 158]          +++ (≥66%)
3  CC(C)N(C(=O)c1cc(F)ccc1Oc1cncnc1N1CC2(CCN(C[C@@H]3CC[C@@H](NS(=O)(=O)c4cnn(C)c4)CO3)CC2)C1)C1CC(F)(F)C1 [Example 156]          +++ (≥66%)
4  CC(C)N(C(=O)c1cc(F)ccc1Oc1cncnc1N1CC2(CCN(C[C@@H]3CC[C@@H](NS(=O)(=O)C(C)C)CO3)CC2)C1)C(C)C [Example 14]  ++ (233% and ≤66%)
5  CC(C)N(C(=O)c1cc(F)ccc1Oc1cncnc1N1CC2(CCN(C[C@@H]3CC[C@@H](NS(=O)(=O)N(C)C)CO3)CC2)C1)C1COC1 [Example 249]          +++ (≥66%)

Let us move to another entry and its hERG % Remaining.
Summary for this compound, C[C@@H]1COC[C@H](C)N1C(=O)c1cc(F)ccc1Oc1cncnc1N1CC2(CCN(C[C@@H]3CC[C@@H](NS(=O)(=O)c4ccccc4)CO3)CC2)C1 [Example 130] : hERG % Remaining is ++ (233% and ≤66%)

###

Target: hERG (Homo sapiens, UniProt Q12809)
Experiment: Patch clamp assay (hERG tail currents, whole-cell)
Settings: 30 μM compound
result-type: hERG % Remaining

Observe how each entry below is paired with its result.
> print(dat)
                               given.smiles     endpoint.result
1  CCS(=O)(=O)N[C@@H]1CC[C@@H](CN2CCC3(CC2)CN(c2ncncc2Oc2ccc(F)cc2C(=O)N(C(C)C)C(C)C)C3)OC1  ++ (233% and ≤66%)
2  CC(C)N(C(=O)c1cc(F)ccc1Oc1nncnc1N1CC2(CCN(C[C@@H]3CC[C@@H](NS(=O)(=O)N4CCC4)CO3)CC2)C1)C(C)C          +++ (≥66%)
3  Cc1nc(S(=O)(=O)N[C@@H]2CC[C@@H](CN3CCC4(CC3)CN(c3ncncc3Oc3ccc(F)cc3C(=O)N(C(C)C)C(C)C)C4)OC2)cs1  ++ (233% and ≤66%)
4  CCS(=O)(=O)N[C@@H]1CC[C@@H](CN2CCC3(CC2)CN(c2ncncc2Oc2ccc(F)cc2C(=O)N(C(C)C)C2CC2)C3)OC1  ++ (233% and ≤66%)

Now for a further molecule.
Kindly note the recorded hERG % Remaining for Cc1c(S(=O)(=O)N[C@@H]2CC[C@@H](CN3CCC4(CC3)CN(c3ncncc3Oc3ccc(F)cc3C(=O)N(CC(F)F)C(C)C)C4)OC2)cnn1C , which is +++ (≥66%)
